- method: MTT-based cell viability assay
- measurementParameters: human, HeLa cells
We begin with a simple list: items and their reported CC50 at 72 h.
measuredAttribute: CC50 at 72 h

• COc1ccc(COc2ccccc2C(=O)Nc2ccccc2OC)cc1 [43j] = > 100 µM
• COc1ccccc1NC(=O)c1ccccc1OCc1ccc([N+](=O)[O-])cc1 [40j] = > 100 µM
• COc1ccccc1NC(=O)c1ccccc1Sc1ccc([N+](=O)[O-])cc1Cl [16a] = 50 µM
• COc1ccccc1C(=O)Nc1ccccc1Oc1ccc(N(C)C)cc1 [30k] = > 100 µM
• COc1ccccc1C(=O)Nc1ccccc1Sc1ccc([N+](=O)[O-])cc1 [5c] = > 100 µM
• O=C(Nc1ccc2c(c1)OCO2)c1ccccc1Sc1ccc([N+](=O)[O-])cc1Cl [16d] = > 100 µM
• COc1ccccc1C(=O)Nc1ccccc1Sc1ccc(N)cc1 [6c] = 60 µM
• COC(=O)c1ccc(Oc2ccccc2NC(=O)c2ccccc2OC)cc1 [33k] = > 100 µM
• COc1ccccc1NC(=O)c1ccccc1Sc1ccccc1 [4a] = > 100 µM
• COc1ccccc1NC(=O)c1ccccc1Sc1ccc(N)cc1 [6a] = > 100 µM
